Recorded values, source patent US6737424B2.

- TARGET ENTITY: glycine receptor of the NMDA receptor complex (Rattus norvegicus)
- Construct: Freshly dissected cortices and hippocampi are homogenized in 0.32 M sucrose; from tissue; host or cells: rat cortex and hippocampus synaptic membranes
- ASSAY COMMENT: [3H]-glycine binding assay (Test A)
- ASSAY CONDITIONS: rat cortex/hippocampus synaptic membranes, 20 nanomolar [3H]-glycine, 30 minutes at 4° C., pH 7.1; read-out: IC50, [3H]-glycine binding
READOUT LABEL: IC50
Give your result as the value with the unit written after it.

Name the recorded IC50 for O=c1c2ccc(Cl)cc2[nH]c2c(O)nn(C3CCCCC3)c(=O)c12 .
120 nM

---

// reported melting point per item

Below, each entry is followed by its recorded melting point result.
• CC(C(=O)Nc1ccccc1)n1nc(O)c2[nH]c3cc(Cl)ccc3c(=O)c2c1=O (centres unmarked) = > 250 °C
• COC(=O)C1(Cn2nc(O)c3[nH]c4cc(Cl)ccc4c(=O)c3c2=O)C=CC=CC1 (centres unmarked) (hydrate or solvate) = 242 to 244 °C
• C[C@H](C(=O)O)n1nc(O)c2[nH]c3cc(Cl)ccc3c(=O)c2c1=O = > 275 °C

Name the recorded melting point for O=c1c2ccc(Cl)cc2[nH]c2c(O)nn(CC3(C(F)(F)F)C=CC=CC3)c(=O)c12 (centres unmarked) (hydrate or solvate) .
237 to 238 °C

---

// reported melting point per item

• COC(=O)[C@@H](C)n1nc(O)c2[nH]c3cc(Cl)ccc3c(=O)c2c1=O (hydrate or solvate) = 262 to 264 °C

Name the recorded melting point for CC(Cc1ccccc1)n1nc(O)c2[nH]c3cc(Cl)ccc3c(=O)c2c1=O (stereo not drawn) (hydrate or solvate) .
241 to 244 °C

Name the recorded melting point for CC(C)CC(C)n1nc(O)c2[nH]c3cc(Cl)ccc3c(=O)c2c1=O (stereo not drawn) .
238 to 240 °C

---

READOUT LABEL: melting point

- O=c1c2ccc(Cl)cc2[nH]c2c(O)nn(C3CCCCC3)c(=O)c12: > 100 °C
- CC(CC(=O)Nc1ccccc1)n1nc(O)c2[nH]c3cc(Cl)ccc3c(=O)c2c1=O (stereo not shown): > 250 °C
- CCCC(C)n1nc(O)c2[nH]c3cc(Cl)ccc3c(=O)c2c1=O (stereo not shown): 237 to 239 °C

Name the recorded melting point for CC(CC(=O)N(C)c1ccccc1)n1nc(O)c2[nH]c3cc(Cl)ccc3c(=O)c2c1=O (stereo not shown) .
218 to 219 °C
